Hey, just so you know, these numbers are from patent US9902728B2.

# Measured on: USP7 (Homo sapiens, UniProt Q93009)
# Construct: USP7, construct USP7 (208-1102) 6*His, Viva Biotech; 6xHis (C); purchased Viva Biotech
# Sequence (Q93009 208-1102): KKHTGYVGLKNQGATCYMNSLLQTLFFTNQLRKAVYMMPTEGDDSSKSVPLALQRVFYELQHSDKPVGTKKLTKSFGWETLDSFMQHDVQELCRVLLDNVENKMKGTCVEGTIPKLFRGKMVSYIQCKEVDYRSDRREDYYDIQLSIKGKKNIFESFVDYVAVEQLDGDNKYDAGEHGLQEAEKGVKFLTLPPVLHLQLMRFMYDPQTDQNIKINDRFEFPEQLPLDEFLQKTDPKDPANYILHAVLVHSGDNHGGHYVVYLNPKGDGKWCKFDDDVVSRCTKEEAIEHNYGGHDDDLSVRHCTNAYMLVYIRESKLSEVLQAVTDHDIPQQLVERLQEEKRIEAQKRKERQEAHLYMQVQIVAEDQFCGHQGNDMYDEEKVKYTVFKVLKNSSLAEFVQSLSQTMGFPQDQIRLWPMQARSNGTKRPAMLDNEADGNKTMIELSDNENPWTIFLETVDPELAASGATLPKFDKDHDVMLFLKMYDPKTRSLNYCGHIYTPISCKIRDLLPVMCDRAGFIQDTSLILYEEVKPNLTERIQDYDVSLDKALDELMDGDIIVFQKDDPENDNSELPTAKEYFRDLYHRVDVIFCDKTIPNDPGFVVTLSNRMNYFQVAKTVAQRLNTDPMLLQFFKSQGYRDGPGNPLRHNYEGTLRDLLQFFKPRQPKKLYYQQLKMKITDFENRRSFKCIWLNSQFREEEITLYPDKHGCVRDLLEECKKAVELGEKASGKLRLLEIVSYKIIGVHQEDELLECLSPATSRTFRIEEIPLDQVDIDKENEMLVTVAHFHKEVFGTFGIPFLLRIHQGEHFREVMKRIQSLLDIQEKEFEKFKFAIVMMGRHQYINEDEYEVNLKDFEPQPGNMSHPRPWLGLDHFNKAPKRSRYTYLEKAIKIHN
# Method: USP7 Assay A (Ubitquin-Rhodamine 110 Assay)
# Assay type: biochemical
# Measurement parameters: USP7 assay A and B (table does not say which assay per compound); read-out: USP7_IC50
# Description: Each assay was performed in a final volume of 15 μL in assay buffer containing 20 mM Tris-HCl (pH 8.0, (1M Tris-HCl, pH 8.0 solution; Corning 46-031-CM)), 1 mM GSH (L-Glutathione reduced; Sigma #G4251), 0.03% BGG ([…], Sigma, #G7516-25G), and 0.01% Triton X-100 (Sigma, #T9284-10L). […] Fluorescence was read on the Envision (Excitation at 485 nm and Emission at 535 nm; Perkin Elmer) or on the PheraSTAR (Excitation at 485 nm and Emission at 535 nm; BMG Labtech). […]
Observed property: IC50

1) C[C@H](CC(=O)N1CCC(O)(Cn2cnc3c(cnn3-c3cccc(C(F)(F)F)c3)c2=O)CC1)c1ccccc1: < 200 nM

Sample O=C(c1ccccc1)N1CCC(O)(Cn2cnc3c(cnn3-c3ccc(F)cc3)c2=O)CC1 ; IC50 observed: 1000 to 10000 nM

The reported IC50 of the molecule COc1ccc(-n2ncc3c(=O)n(C(C)C4(O)CCN(C(=O)c5ccc(F)cc5)CC4)cnc32)cc1 (centres unmarked) was 200 to 1000 nM

Record Cc1cnc(C(=O)N2CCC(O)(Cn3cnc4c(cnn4-c4ccccc4)c3=O)CC2)cn1 . Reported IC50: > 10000 nM

// field: IC50; key: CN1CCCC(CNc2cccc(-n3ncc4c(=O)n(CC5(O)CCN(C(=O)C6CC6)CC5)cnc43)c2)C1 (centres unmarked) ; value = 200 to 1000 nM

Per the records, this molecule ( O=C(C1CC1)N1CCC(O)(Cn2cnc3c(cnn3-c3cccc(NS(=O)(=O)c4cccc(Cl)c4)c3)c2=O)CC1 ) has IC50 equal to 1000 to 10000 nM

Entry O=C(C1CC1)N1CCC(O)(Cn2cnc3c(cnn3-c3cccc(N4CCNCC4)c3)c2=O)CC1 ; IC50 = < 200 nM

IC50 measured on CC(C)OCCNc1ccc(-n2ncc3c(=O)n(CC4(O)CCN(C(=O)C5CC5)CC4)cnc32)cc1 = 1000 to 10000 nM
